Recorded apparent KD of MS2 coat protein for the following sequences
Tested on: MS2 coat protein
Experiment: apparent KD of MS2 coat protein; designed switch direction (-1 OFF switch, 1 ON switch): 1; higher = weaker reporter binding
Conditions: Eterna round: R95; input ligand: FMN 200 uM
readout: apparent KD of MS2 coat protein (nM)

>>> endpoint_result("UGGAUCUAGGCUUGCCUGGGUCCAUGUUGACAUGAGGAUCACCCAUGUGUAUUUUAUAAGCUUUUUGUUUGUCAACU [JL A Humble Attempt mod 8] (puzzle: Sensor for hsa-mir-208a)")
25.7
>>> endpoint_result("AUUAAACAUGAGGAUCACCCAUGUCAACAAAGUCGAGGAUAUGGGCAAAUAAAAUAAGAACCAGAAGGCGUAUAAU [salish99_ss1_r3_077] (puzzle: Same State 1)")
75.9
>>> endpoint_result("AGAGAACAUGAGGAUCACCCAUGUGGGAUGGGCAUAGGAUAUAGAGGAGAGAGGGAGGAACUAGAAGGAUGAUGGA [JR_SS1_Sub079] (puzzle: Same State 1)")
43
>>> endpoint_result("GGAGGACAUGAGGAUCACCCAUGUGGAUGGGCGCUAGGAUAUGCGAGAGGGUGGAGAGAAGCAGAAGGAGUGGAUA [JR_SS1_Sub038] (puzzle: Same State 1)")
76.7
>>> endpoint_result("GAGAAGAGGGACAAGGAUAUGUCAGGAGAGACAUGAGGAUCACCCAUGUAGAGGUUGGAGGAGAGACAGAAGGUGUCGAGAGCGA [JR_SS2_Sub014] (puzzle: Same State 2)")
123
>>> endpoint_result("AUUUAACAAGCUUUUUGCUCGUCUUAUAAACAUGAGGAUCACCCAUGUAAUAGCGUGAGAGUAAAUUUAUAAAUAAU [JMF 88] (puzzle: Sensor for hsa-mir-208a)")
15.7
>>> endpoint_result("GUUAUACAUGAGGAUCACCCAUGUCAAUGUAGUCGAGGAUAUGGGCAGCUGUGAGGCGUACUAGAAGGCGAAGAGG [JL-ss1-3.10 ViennaUCT mod] (puzzle: Same State 1)")
86.1
>>> endpoint_result("AAUAAUUUACAUGAGGAUCACCCAUGUGGUAAACAUGCUUUUUGCUCGUCUUAUGGUUUUUUUUUUUUUUUUUUUUU [viviankchen1] (puzzle: Sensor for hsa-mir-208a version 2)")
91
>>> endpoint_result("GUAAAACAUGAGGAUCACCCAUGUCAACAAAGUCGAGGAUAUGGGCAAAUAAAAUAAGAACCAGAAGGCGAAUAAC [salish99_SS1_r3_010] (puzzle: Same State 1)")
45.8
>>> endpoint_result("UCUAGACAUGAGGAUCACCCAUGUCGAUAUGACACAGGAUAUCGGUACUCAUAGAGUACGCGAGAAGGGUGACUUC [Same State 1 - Mod of Vinnie Gere v.3] (puzzle: Same State 1)")
112
